- EXPERIMENT_NOTES: pharmacokinetic pilot, continuous infusion in one animal
- Assay type: in vivo, pig
- EXPERIMENTAL_CONTEXT: pig, whole blood, intravenous, 0.1 mg/kg/h, time 285 minutes, read-out: Conc in blood 950
READOUT_TYPE: concentration at 285 min (ng/mL)
Numbers only, in ng/mL.

# molecule `CCOCCOCCOCCCCCNC(=O)NC12CC3CC(CC(C3)C1)C2` ; its concentration at 285 min = 0.189

---

Could you please report measured IC50 for the items listed next?
- TARGET_OF_ASSAY: Recombinant porcine sEH (Sus scrofa, UniProt Q6Q2C2)
- Construct: made in house
- Sequence (Q6Q2C2 whole entry): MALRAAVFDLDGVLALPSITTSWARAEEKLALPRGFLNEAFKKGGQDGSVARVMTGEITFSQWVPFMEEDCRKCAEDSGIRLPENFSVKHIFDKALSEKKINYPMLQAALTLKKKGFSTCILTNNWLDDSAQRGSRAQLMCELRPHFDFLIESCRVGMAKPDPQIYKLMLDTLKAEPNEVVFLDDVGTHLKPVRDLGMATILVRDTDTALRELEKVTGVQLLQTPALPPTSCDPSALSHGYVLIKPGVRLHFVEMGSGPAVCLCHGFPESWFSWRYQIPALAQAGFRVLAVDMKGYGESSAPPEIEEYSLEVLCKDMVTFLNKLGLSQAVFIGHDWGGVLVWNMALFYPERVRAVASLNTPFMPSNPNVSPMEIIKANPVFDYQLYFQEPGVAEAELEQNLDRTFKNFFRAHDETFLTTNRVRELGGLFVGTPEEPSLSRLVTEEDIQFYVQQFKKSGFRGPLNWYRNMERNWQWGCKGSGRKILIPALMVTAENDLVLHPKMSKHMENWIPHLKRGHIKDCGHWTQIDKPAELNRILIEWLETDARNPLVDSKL
- EXPERIMENT_NOTES: fluorescent activity assay (MNPC substrate), sEH inhibition potency
- Assay type: biochemical, pig
- EXPERIMENTAL_CONTEXT: 5 min preincubation 37 °C, MNPC 5 µM; read-out: Pig sEH IC50
One number for each entry, in nM.

Examples from the recorded data:
> print(dat)
                                   compound  numeric.readout
1  COC(=O)c1ccc(NC(=O)NC23CC4CC(CC(C4)C2)C3)cc1O                5
2  O=C(Nc1ccc(OC(F)(F)F)cc1)N[C@H]1CC[C@@H](Oc2ccc(C(=O)O)cc2)CC1               19
3             O=C(Nc1cccc2ccccc12)NC1CCCCC1              105
4  CC(C)C(=O)N1CCC(NC(=O)Nc2ccc(C(F)(F)F)cc2)CC1               70
5  CC(C)C(=O)N1CCC(NC(=O)Nc2ccc(OC(F)(F)F)cc2)CC1               38

# per-item lookup of IC50; items listed below
1. O=C(O)CCCCCCCCCCCNC(=O)Nc1ccc(OC(F)(F)F)cc1
2. O=C(Nc1ccc(OC(F)(F)F)cc1)N[C@H]1CC[C@H](Oc2ccc(C(=O)O)cc2)CC1
3. CNc1nc(C)nc(N[C@H]2CCC[C@@H](C(=O)NCc3ccc(C#N)cc3C(F)(F)F)C2)n1
4. O=C(Nc1ccc(C(F)(F)F)cc1)NC1CCN(C(=O)CC(F)(F)F)CC1
5. CCC(C)C(=O)N1CCC(NC(=O)Nc2cc(C(F)(F)F)cc(C(F)(F)F)c2)CC1 (centres unmarked)
6. CCCC(=O)N1CCC(NC(=O)Nc2ccc(C(F)(F)F)cc2)CC1

Response given:
1. 40
2. 34
3. 48
4. 44
5. 107
6. 60
